Test: Phase I study CXR1002-001: plasma pharmacokinetics (LC-MS/MS)
Type: in vivo, human
Conditions: human, plasma, oral, 50 mg, Patient 002 Dose 50 mg; 0.25 hr
Metric Name: concentration at 0.25 h (µM)
Write the answer as a number in µM, unit excluded.

Lab note: O=C(O)C(F)(F)C(F)(F)C(F)(F)C(F)(F)C(F)(F)C(F)(F)C(F)(F)F gave concentration at 0.25 h of 3.06

----------
Assay: Phase I study CXR1002-001: plasma pharmacokinetics (LC-MS/MS)
Assay type: in vivo, human
Conditions: human, plasma, oral, 600 mg, Patient 021, 600 mg, person, plasma, 338 hr; read-out: Concentration
Metric Name: concentration at 338 h (µM)
Write the answer as a number in µM, unit excluded.

Lab note: O=C(O)C(F)(F)C(F)(F)C(F)(F)C(F)(F)C(F)(F)C(F)(F)C(F)(F)F gave concentration at 338 h of 650

Source of measurements: patent US20130029928A1
